Sourced from ChEMBL document CHEMBL4706652

Give measured viability at 24 h, 20 µM for each item. Keep answers brief.
# procedure text: Cytotoxicity against LPS-induced […] BV-2 cells assessed as cell viability at 20 uM measured after 24 hrs by MTT assay relative to control
# Type: cell-based
# measurement context: LPS-induced BV-2 cells, read-out: Activity
# output: bare number, implied unit %

Could you share which viability at 24 h, 20 µM value was measured for O=C(CCN1CCOCC1)c1cccc(C(F)(F)F)c1 ?
100

Could you share which viability at 24 h, 20 µM value was measured for O=C(CN1CCOCC1)C(=O)c1ccccc1 ?
100

Could you share which viability at 24 h, 20 µM value was measured for O=C(CCN1CCOCC1)c1ccccc1 ?
99.8

Could you share which viability at 24 h, 20 µM value was measured for O=C(CC(=O)N1CCOCC1)c1ccccc1 ?
99.7

Could you share which viability at 24 h, 20 µM value was measured for O=C(Cc1ccccc1)CN1CCOCC1 ?
100

Could you share which viability at 24 h, 20 µM value was measured for Nc1ccc(C(=O)CCN2CCOCC2)cc1 ?
100

Could you share which viability at 24 h, 20 µM value was measured for O=C(CCN1CCOCC1)c1ccccc1C(F)(F)F ?
100

Could you share which viability at 24 h, 20 µM value was measured for Cc1ccc(C(=O)CCN2CCOCC2)cc1 ?
100

Could you share which viability at 24 h, 20 µM value was measured for CN(C)c1ccc(C(=O)CCN2CCOCC2)cc1 ?
100

Could you share which viability at 24 h, 20 µM value was measured for O=C(CCN1CCOCC1)c1ccc(F)cc1 ?
95
